- system name: human properdin (human, UniProt P27918 28-469)
- Sequence (P27918 28-469 limits assumed): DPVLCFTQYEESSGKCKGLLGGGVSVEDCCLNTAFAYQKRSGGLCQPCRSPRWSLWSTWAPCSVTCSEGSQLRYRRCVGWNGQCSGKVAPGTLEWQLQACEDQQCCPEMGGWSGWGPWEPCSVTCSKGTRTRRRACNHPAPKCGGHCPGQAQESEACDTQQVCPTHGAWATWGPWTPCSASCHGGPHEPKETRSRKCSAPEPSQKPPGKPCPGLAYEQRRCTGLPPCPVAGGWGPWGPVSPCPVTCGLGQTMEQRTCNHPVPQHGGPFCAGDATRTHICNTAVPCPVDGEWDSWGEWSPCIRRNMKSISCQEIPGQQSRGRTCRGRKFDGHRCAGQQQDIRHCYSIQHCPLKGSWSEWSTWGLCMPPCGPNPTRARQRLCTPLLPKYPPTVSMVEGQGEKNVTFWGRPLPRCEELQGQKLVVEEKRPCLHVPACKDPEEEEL
- experimental protocol: cell-based or functional assay
Examples of binders with documented Properdin (µg/mL); inhibition of properdin deposition follow.
Give just the numeric value; µg/mL need not be written.

Worked examples follow.
binder	experimental result
NMT21 (antibody, V domains shown) VH: EVQLVQSGAEVKKPGASVKVSCKASGYIFTNYPIHWVRQAPGQGLEWMGFIDPGGGYDEYAQKFQGRVTLTADTSTSTAYMELSSLRSEDTAVYYCARRGGGYYLDYWGQGTTLTVSS VL: DIQMTQSPSSLSASVGDRVTITCRASQDISFFLNWYQQKPGKAPKLLIYYTSRYHSGVPSRFSGSGSGTDFTLTISSLQPEDFATYYCQHGQTLPWTFGQGTKLEIK	8
NMT18 (antibody, V domains shown) VH: EVQLVQSGAEVKKPGASVKVSCKASGYIFTNYPIHWVRQAPGQGLEWMGFIDPGGGYDEPDERFRDRVTMTADTSTSTAYMELSSLRSEDTAVYYCARRGGGYYLDYWGQGTTVTVSS VL: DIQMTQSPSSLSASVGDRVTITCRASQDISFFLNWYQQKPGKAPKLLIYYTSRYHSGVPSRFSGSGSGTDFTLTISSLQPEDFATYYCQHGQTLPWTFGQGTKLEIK	3
NMT15 (antibody, V domains shown) VH: QVQLVQSAPEVAKPGTSVKMSCKASGYIFTNYPIHWVKQAPGQGLEWIGFIDPGGGYDEPDERFRDRATLTADKSTSTAYMELSSLRSEDTAIYYCARRGGGYYLDYWGQGTLVTVSS VL: DIQMTQSPSSLSASLGDRVTITCRASQDISFFLNWYQQKPDGTVKLLIYYTSRYHSGVPSRFSGSGSGTDFTLTISSLQPEDFATYFCQHGNTLPWTFGQGTKLEIK	2
NMT20 (antibody, V domains shown) VH: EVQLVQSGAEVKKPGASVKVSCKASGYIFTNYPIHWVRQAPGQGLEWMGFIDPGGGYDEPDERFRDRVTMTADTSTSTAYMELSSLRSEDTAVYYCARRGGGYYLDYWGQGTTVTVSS VL: DIQMTQSPSSLSASVGDRVTITCRASQDISFFLNWYQQKPGKAPKLLIYYTSRYHSGVPSRFSGSGSGTDFTLTISSLQPEDFATYYCQHGSTLPYTFGQGTKLEIK	30
NMT17 (antibody, V domains shown) VH: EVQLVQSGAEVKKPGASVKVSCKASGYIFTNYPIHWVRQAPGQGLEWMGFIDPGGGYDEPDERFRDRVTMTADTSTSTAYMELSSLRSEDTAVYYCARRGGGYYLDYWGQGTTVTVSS VL: DIQMTQSPSSLSASVGDRVTITCRASQDISFFLNWYQQKPGKAPKLLIYYTSRYHSGVPSRFSGSGSGTDFTLTISSLQPEDFATYYCQHGSTLPWTFGQGTKLEIK	4

**Q:** For the binder NMT16 (antibody, V domains shown) VH: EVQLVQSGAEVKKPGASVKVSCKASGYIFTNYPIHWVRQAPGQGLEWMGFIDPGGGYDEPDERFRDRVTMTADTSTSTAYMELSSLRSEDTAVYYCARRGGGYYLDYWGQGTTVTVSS VL: DIQMTQSPSSLSASVGDRVTITCRASQDISFFLNWYQQKPGKAPKLLIYYTSRYHSGVPSRFSGSGSGTDFTLTISSLQPEDFATYYCQHGNTLPWTFGQGTKLEIK , what Properdin (µg/mL); inhibition of properdin deposition is on record?
**A:** 4
